System: HL-60(TB) leukemia
Test: NCI tumour cell line growth inhibition, 48 h; in the data active means GI50 below about 0.43 µM; inactive means the rest
The reply should name one outcome from TRUE = active, FALSE = inactive

{"compound": "Nc1nc(Nc2cccc(F)c2)nc2ccccc12", "target-or-test-system": "HL-60(TB) leukemia", "category-label": "FALSE"}
{"compound": "CN(C)c1ccc(N=Nc2c([O-])ccc3ccccc23)cc1.[C-]#[O+].[C-]#[O+].[Ir]", "target-or-test-system": "HL-60(TB) leukemia", "category-label": "FALSE"}
{"compound": "CCOC(=O)c1cnn(-c2ccnc3c(C(F)(F)F)cccc23)c1N", "target-or-test-system": "HL-60(TB) leukemia", "category-label": "FALSE"}
{"compound": "C=C(C)CCC(C)N1CCC(N2CCC(C(=O)NCCc3ccccc3)CC2)CC1 (configuration not stated)", "target-or-test-system": "HL-60(TB) leukemia", "category-label": "FALSE"}

Short answer needed: outcome of this test for CC(=O)OC1C2(CC3N4C(=O)C5(CO)SSC4(CC31O)C(=O)N5C)OC(C)C(C)(C)C2=O (configuration not stated) ?
TRUE

Short answer needed: outcome of this test for O=C(NN1C(=O)CSC1c1ccc(Cl)cc1)c1[nH]c2ccc(F)cc2c1-c1ccccc1 (configuration not stated) ?
FALSE

Short answer needed: outcome of this test for O=c1[nH]cnc2c(C3OC(CO)C(O)C3O)scc12 (configuration not stated) ?
FALSE

Short answer needed: outcome of this test for Cc1cc(N2CCCC2)nc(N(CCCNc2ccnc3cc(Cl)ccc23)Cc2ccc3c(c2)OCO3)n1 ?
TRUE

Short answer needed: outcome of this test for C/C1=C\CC[C@@](C)(O)[C@@H]2CC3[C@@H](OC(=O)C34CC4)[C@@H](O2)[C@H](C)CCC1 (some centres not stated) ?
FALSE

Short answer needed: outcome of this test for Cn1cc(-c2ccc(CNc3cc(-c4cnc5cc(OCCCN6CCCC6)ccn45)ncn3)cc2)cn1 ?
FALSE

Short answer needed: outcome of this test for COc1ccc(-c2ccc(/C=N/n3c(COc4ccc(Cl)cc4)n[nH]c3=S)o2)c([N+](=O)[O-])c1 ?
FALSE

Short answer needed: outcome of this test for Fc1ccc(Nc2nc(NCCNc3ccnc4cc(Cl)ccc34)nc(N3CCOCC3)n2)cc1 ?
FALSE

Short answer needed: outcome of this test for CCOC(=O)N1CCN(S(=O)(=O)c2oc(-c3ccc(Cl)cc3)nc2C#N)CC1 ?
FALSE

Short answer needed: outcome of this test for CS(=O)(=O)Nc1cc(-c2ccc3ncnc(Nc4ccc5c(cnn5Cc5ccc(F)cc5)c4)c3c2)cnc1Cl ?
FALSE

Short answer needed: outcome of this test for C[C@H](CS(C)(=O)=O)Nc1ncc2cc(Oc3ccc(F)cc3F)c(=O)n(C)c2n1 ?
FALSE

Short answer needed: outcome of this test for COc1ccc2c(c1)nc(N)c1c3cccnc3cn21 ?
TRUE

Short answer needed: outcome of this test for N#CC1C(N)=NNC12Nc1ccccc1N2 (configuration not stated) ?
FALSE

---

System: IGROV1 ovarian
Assay: NCI tumour cell line growth inhibition, 48 h
For each entry below, report its TGI value.

{"molecule": "CC(=O)c1cccc(NCn2nnc3ccccc32)c1", "target-or-test-system": "IGROV1 ovarian", "TGI": "> 100 µM"}

Would you mind giving TGI for every molecule in the list below?
1. Cc1c2cnccc2nc2[nH]c3ccncc3c12
2. CC(CCCOC(c1ccccc1)(c1ccccc1)c1ccccc1)OC(=O)Nc1cc([N+](=O)[O-])cc([N+](=O)[O-])c1 (configuration not stated)
3. CN(C)CCNC(=O)c1ccc(Cl)c2c(Nc3ccc(S(N)(=O)=O)cc3)c3ccccc3nc12
4. NC(N)=NC(N)=Nc1c(F)c(F)c(F)c(F)c1F

20.4 µM
> 100 µM
16.5 µM
> 100 µM
